measurement-target: GlcNAc(a1-4)Gal(b1-4)GlcNAc(b1-3)Gal(b1-4)Glc
measurement-notes: glycan array binding signal (z-score within array); higher = stronger binding
stated-conditions: glycan notation: IUPAC condensed, linker removed
Only a selection was taken, and the strongest signals are over-represented in it overall.
Let's look at some binders and their measured glycan array binding signal (z-score).
Reply with the value as a number alone.

{"columns": ["binder", "meas-value"],
 "data": [
  ["Gal 4 (Canis lupus) (protein) MAYVPAPGYQPTYNPTLPYNKPIPGGLSVGMSVYIQGITSEHMRRFCVNFVAGAHPGSDIAFHFNPRFDGWDKVVFNSHLGGKWGSEEKKRSMPFRKGTHFELVFMVLAEHYKVVVNGNPFYEFGHRLPLQLVTHLQVEGDVELQSINFIGGTQPLGQGPGHTQQQPSSLPTMEGPPVFNPPVPFRKRLQGGLTVRRTVIIKGFVPFTSKSFVINFMVESSGDLALHINPRLTEGLVVRNSCLNGSWGSEDRKLSYNPFIPGQFFDLSIRCGMDRFKVYANGQHLFDFSHRLLALQNVDMLEINGDVTLSYIQV", -0.147]
]}

Here is another binder to look at.
Fill blank: measured glycan array binding signal (z-score) of the binder RsaA-N-term (Caulobacter crescentus), P35828 (protein) MAYTTAQLVTAYTNANLGKAPDAATTLTLDAYATQTQTGGLSDAAALTNTLKLVNSTTAVAIQTYQFFTGVAPSAAGLDFLVDSTTNTNDLNDAYYSKFAQENRFINFSINLATGAGAGATAFAAAYTGVSYAQTVATAYDKIIGNAVATAAGVDVAAAVAFLSRQANIDYLTAFVRANTPFTAAADIDLAVKAALIGTILNAATVSGIGGYATATAAMINDLSDGALSTDNAAGVNLFTAYPSSGVSGSTLSLTTGTDTLTGTANNDTFVAGEVAGDGSGWSHPQFEKGG is ____.
-0.491
